assay: Compound cytotoxicity, XTT-based colorimetric assay; format: cell-based; settings: human, uninfected MT2 cells, day 4, XTT
Below: a set of entries, each annotated with reported CC50 at 4 days.

Field: example entries. Status: answers known.
• CN(C(=O)[C@H](Cc1cc(F)cc(F)c1)NC(=O)NS(=O)(=O)N1CCc2cccnc21)c1ccc(Cl)cc1 [ZY-25] = 97.1 µM
• COc1ccc(N(C)C(=O)[C@H](Cc2ccccc2)NC(=O)NS(=O)(=O)Nc2cccc(C)c2)cc1 [JB-24] = > 100 µM

Sure, the documented CC50 at 4 days for CN(C(=O)[C@H](Cc1cc(F)cc(F)c1)NC(=O)NS(=O)(=O)N1CCc2cccnc21)c1ccc(OC(F)F)nc1 [GW-13] is > 100 µM

Sure, the documented CC50 at 4 days for COc1ccccc1N(C)S(=O)(=O)NC(=O)N[C@@H](Cc1ccccc1)C(=O)N(C)c1ccc2ncccc2c1 [JB-13] is > 33.3 µM

Sure, the documented CC50 at 4 days for COc1ccc(N(C)C(=O)[C@H](Cc2ccccc2)NC(=O)NS(=O)(=O)N(C)C(c2ccccc2)c2ccccc2)cc1 [JB-40] is 66.5 µM

Sure, the documented CC50 at 4 days for CN(C(=O)[C@H](Cc1cc(F)cc(F)c1)NC(=O)NS(=O)(=O)N1CCc2cccnc21)c1cccnc1 [GW-18] is > 100 µM

Sure, the documented CC50 at 4 days for COc1ccc(N(C)C(=O)[C@H](Cc2cc(F)cc(F)c2)NC(=O)NS(=O)(=O)N2CCC(F)(F)CC2)cc1F [AW-3] is > 100 µM

* * *

test: Compound cytotoxicity, XTT-based colorimetric assay; format: cell-based; conditions: human, uninfected MT2 cells, day 4, XTT
value.kind: CC50 at 4 days

Field: example entries. Status: answers known.
* COc1cncc(N(C)C(=O)[C@H](Cc2cc(F)cc(F)c2)NC(=O)NS(=O)(=O)N2CCc3cccnc32)c1 | > 100 µM
* COc1ccc(N(C)C(=O)[C@H](Cc2ccccc2)NC(=O)NS(=O)(=O)Nc2cccc(OC(F)(F)F)c2)cc1 | 30.3 µM
* CN(C(=O)[C@H](Cc1cc(F)cc(F)c1)NC(=O)NS(=O)(=O)n1ccc2cccnc21)c1ccc2scnc2c1 | > 100 µM

Sure, the documented CC50 at 4 days for CN(C(=O)[C@H](Cc1cc(F)cc(F)c1)NC(=O)NS(=O)(=O)N1CCc2cccnc21)c1ccc2cncnc2c1 is > 100 µM

Sure, the documented CC50 at 4 days for COc1ccc(N(C)C(=O)[C@H](Cc2ccccc2)NC(=O)NS(=O)(=O)Nc2ccc(Cl)cc2Cl)cc1 is > 100 µM

Sure, the documented CC50 at 4 days for CN(C(=O)[C@H](Cc1cc(F)cc(F)c1)NC(=O)NS(=O)(=O)N1CCC(c2ccccc2)CC1)c1ccc2scnc2c1 is 99.2 µM

Sure, the documented CC50 at 4 days for CCOc1ccc(N(CC)C(=O)[C@H](Cc2ccccc2)NC(=O)NS(=O)(=O)N2CCc3cc(OC)cc(C)c32)cc1 is > 100 µM

* * *

Below: a set of entries, each annotated with reported CC50 at 4 days.
assay: Compound cytotoxicity, XTT-based colorimetric assay; assay type: cell-based; conditions: human, uninfected MT2 cells, day 4, XTT

Sure, the documented CC50 at 4 days for CN(C)C(=O)[C@@H]1CCCN1S(=O)(=O)NC(=O)N[C@@H](Cc1cc(F)cc(F)c1)C(=O)N(C)c1ccc2scnc2c1 is > 100 µM

* * *

assay: Compound cytotoxicity, XTT-based colorimetric assay; type: cell-based; settings: human, uninfected MT2 cells, day 4, XTT
Below: a set of entries, each annotated with reported CC50 at 4 days.

Field: example entries. Status: answers known.
• CN(C(=O)[C@H](Cc1cc(F)cc(F)c1)NC(=O)NS(=O)(=O)N(C)Cc1ccccc1)c1ccc2scnc2c1 = > 100 µM
• CN(C(=O)[C@H](Cc1cc(F)cc(F)c1)NC(=O)N1CCN(C)S1(=O)=O)c1ccc2scnc2c1 = > 100 µM
• CN(C(=O)[C@H](Cc1cc(F)cc(F)c1)NC(=O)N(C)S(=O)(=O)N1CCc2cccnc21)c1ccc2scnc2c1 = > 33.3 µM
• CN(C(=O)[C@H](Cc1cc(F)cc(F)c1)NC(=O)NS(=O)(=O)Nc1ccc(C(C)(C)C)cc1)c1ccc2scnc2c1 = 66.9 µM
• CC(C)N(C)S(=O)(=O)NC(=O)N[C@@H](Cc1cc(F)cc(F)c1)C(=O)N(C)c1ccc2scnc2c1 = > 100 µM
• CN(C(=O)[C@H](Cc1cc(F)cc(F)c1)NC(=O)NS(=O)(=O)N1CCCc2ccccc21)c1ccc2scnc2c1 = 95.9 µM

Sure, the documented CC50 at 4 days for CN(C(=O)[C@H](Cc1cc(F)cc(F)c1)NC(=O)NS(=O)(=O)n1ccc2nccnc21)c1ccc2scnc2c1 is > 100 µM

* * *

Experiment: Compound cytotoxicity, XTT-based colorimetric assay
Assay type: cell-based
Details: human, uninfected MT2 cells, day 4, XTT
Procedure: Compound cytotoxicity and the corresponding CC50 values were determined using the same protocol as described in the antiviral assay except that uninfected cells were used. Cytotoxicity was assessed on day 4 in uninfected MT2 cells by using a XTT (2,3-bis[2-Methoxy-4-nitro-5-sulfophenyl]-2H-tetrazolium-5-carboxyanilide inner salt)-based colorimetric assay (Sigma-Aldrich, St Louis, Mo.).
value.kind: CC50 at 4 days

Field: example entries. Status: answers known.
• CN(C(=O)[C@H](Cc1cc(F)cc(F)c1)NC(=O)NS(=O)(=O)N1CCC(c2ccccc2)C1)c1ccc2scnc2c1 (mixture of isomers) [CA-152] = > 100 µM
• CN(C(=O)[C@H](Cc1cc(F)cc(F)c1)NC(=O)NS(=O)(=O)N(C)C)c1ccc2scnc2c1 [VN-16] = > 100 µM

Sure, the documented CC50 at 4 days for CN(C(=O)[C@H](Cc1cc(F)cc(F)c1)NC(=O)NS(=O)(=O)N1CCc2cccnc21)c1ccc(Cl)c(C#N)c1 [BB-23] is > 100 µM

Sure, the documented CC50 at 4 days for CN(C(=O)[C@H](Cc1cc(F)cc(F)c1)NC(=O)NS(=O)(=O)N1CCCC1c1ccccn1)c1ccc2scnc2c1 (single isomer, unassigned) [VN-1] is > 100 µM

Sure, the documented CC50 at 4 days for CN(C(=O)[C@H](Cc1cc(F)cc(F)c1)NC(=O)NS(=O)(=O)Nc1ccccc1)c1ccc2scnc2c1 [CA-115] is > 100 µM

Sure, the documented CC50 at 4 days for COc1ccc(N(C)C(=O)[C@H](Cc2ccccc2)NC(=O)NS(=O)(=O)n2ccc3c(F)c(F)c(F)c(F)c32)cc1 [JB-78] is > 33.3 µM

Sure, the documented CC50 at 4 days for CN(C(=O)[C@H](Cc1cc(F)cc(F)c1)NC(=O)NS(=O)(=O)n1ncc2c(Cl)cccc21)c1ccc2scnc2c1 [ZY-19] is > 33.3 µM

Sure, the documented CC50 at 4 days for COc1ccc(N(C)C(=O)[C@H](Cc2ccccc2)NC(=O)NS(=O)(=O)N(C)CC(=O)N(C)C)cc1 [JB-30] is > 100 µM

Sure, the documented CC50 at 4 days for COc1ccc(N(C)C(=O)[C@H](Cc2ccccc2)NC(=O)NS(=O)(=O)N(C)c2ccccc2Cl)cc1 [JB-6] is > 100 µM

Sure, the documented CC50 at 4 days for COCCN(C)S(=O)(=O)NC(=O)N[C@@H](Cc1cc(F)cc(F)c1)C(=O)N(C)c1ccc2scnc2c1 [CA-149] is > 100 µM

Sure, the documented CC50 at 4 days for CC(=O)NCCNS(=O)(=O)NC(=O)N[C@@H](Cc1cc(F)cc(F)c1)C(=O)N(C)c1ccc2scnc2c1 [CA-137] is > 100 µM

Sure, the documented CC50 at 4 days for COc1ccc(N(C)C(=O)[C@H](Cc2ccccc2)NC(=O)NS(=O)(=O)Nc2ccc(-c3cnco3)cc2)cc1 [CA-38] is > 100 µM

Sure, the documented CC50 at 4 days for CC1CN(S(=O)(=O)NC(=O)N[C@@H](Cc2cc(F)cc(F)c2)C(=O)N(C)c2ccc3scnc3c2)c2ncccc21 (single isomer, unassigned) [VN-14] is > 100 µM

Sure, the documented CC50 at 4 days for CCOc1ccc(N(CC)C(=O)[C@H](Cc2ccccc2)NC(=O)NS(=O)(=O)N2CCc3c(Cl)cccc32)cc1 [JB-72] is > 33.3 µM

Sure, the documented CC50 at 4 days for CN(C(=O)[C@H](Cc1cc(F)cc(F)c1)NC(=O)NS(=O)(=O)N1CCCC1)c1ccc2scnc2c1 [VN-22] is > 100 µM

Sure, the documented CC50 at 4 days for COc1ccc(N(C)C(=O)[C@H](Cc2ccccc2)NC(=O)NS(=O)(=O)Nc2ccc(NC(=O)N(C)C)cc2)cc1 [JB-52] is > 100 µM

Sure, the documented CC50 at 4 days for COc1ccc(N(C)C(=O)[C@H](Cc2ccccc2)NC(=O)NS(=O)(=O)Nc2cccc(OC)c2)cc1 [JB-20] is > 100 µM

Sure, the documented CC50 at 4 days for Cc1ccc(N(C)C(=O)[C@H](Cc2cc(F)cc(F)c2)NC(=O)NS(=O)(=O)N2CCc3cncnc32)cc1F [BB-14] is 93.1 µM

Sure, the documented CC50 at 4 days for CN(C(=O)[C@H](Cc1cc(F)cc(F)c1)NC(=O)NS(=O)(=O)N1CCc2cccnc21)c1ccc2c(c1)ncn2C [GW-6] is > 25 µM

Sure, the documented CC50 at 4 days for Cc1cc(N(C)C(=O)[C@H](Cc2cc(F)cc(F)c2)NC(=O)NS(=O)(=O)N2CCc3cccnc32)cnc1C [GW-20] is > 100 µM
